The following compounds are shown together with reported MIC values.
System: Staphylococcus aureus
Assay: Antibacterial activity against erythromycin-susceptible Staphylococcus aureus ATCC 25923 by broth microdilution method
Type: functional
Write the number in µg/mL without appending the unit.

CC[C@H]1OC(=O)[C@H](C)[C@@H](O)[C@H](C)[C@@H](O[C@@H]2O[C@H](C)C[C@H](N(C)C)[C@H]2OC(=O)Nc2cccc(OC)c2)[C@](C)(O)C[C@@H](C)CN(C)[C@H](C)[C@H]2OC(=O)O[C@@]21C : 32
CC[C@H]1OC(=O)[C@H](C)[C@@H](O)[C@H](C)[C@@H](O[C@@H]2O[C@H](C)C[C@H](N(C)C)[C@H]2OC(=O)Nc2cccc(Cl)c2)[C@](C)(O)C[C@@H](C)CN(C)[C@H](C)[C@H]2OC(=O)O[C@@]21C : 16
CC[C@H]1OC(=O)[C@H](C)[C@@H](OC(=O)Nc2cccc(OC)c2)[C@H](C)[C@@H](O[C@@H]2O[C@H](C)C[C@H](N(C)C)[C@H]2O)[C@](C)(O)C[C@@H](C)CN(C)[C@H](C)[C@H]2OC(=O)O[C@@]21C : 16
CC[C@H]1OC(=O)[C@H](C)[C@@H](OC(=O)Nc2cccc(C)c2)[C@H](C)[C@@H](O[C@@H]2O[C@H](C)C[C@H](N(C)C)[C@H]2O)[C@](C)(O)C[C@@H](C)CN(C)[C@H](C)[C@@H](OC(=O)NCc2ccccc2Cl)[C@]1(C)O : 2

Turning now to a further record.
Qu. Output measured MIC for this item: `CCCCc1ccc(NC(=O)O[C@H]2[C@H](O[C@@H]3[C@@H](C)[C@H](O)[C@@H](C)C(=O)O[C@H](CC)[C@@]4(C)OC(=O)O[C@@H]4[C@@H](C)N(C)C[C@H](C)C[C@@]3(C)O)O[C@H](C)C[C@@H]2N(C)C)cc1`
Ans. 32
